test: Toxicity liver stage against HepG2, at 10uM; format: cell-based; design: test concentration 10 uM, cell line HepG2-A16-CD81EGFP; settings: human, HepG2-A16-CD81EGFP cells; read-out: INHIBITION
Measurement kind: cytotoxicity at 10 µM (%)

1) COCCN1C(=O)[C@]2(CC[C@@H]3CN(C(=O)NC(C)C)C[C@@H]32)N=C1C; -57.5
2) CCN1C(=O)C2(CCCCC2)NC12CCSCC2; -149
3) Cc1c(Cn2c(=O)cnc3ccccc32)cnn1C; -0.473
4) CC(=O)N1CCCC1c1nc(N(C)C)ncc1-c1ccccc1 (stereo unspecified); 6.12
5) COCCNC(=O)[C@H]1C[C@@H]2CCN(CCc3ccccc3)C[C@H]2O1; -70.3
6) CCCN1CCC(NC(=O)c2ccnc(SCC)c2)CC1; -4.14
7) COCCN1CCN(c2ncnc3nc(C)cc(C)c23)CC1; 2.42
8) Cc1cc(C)nc(N(C)CCN(C)C2CCCC2)n1; -5.88
9) COCC1CC2(CCN(c3cc(OC)ncn3)CC2)CN1C(C)C (stereo unspecified); -108
10) CC1CCN(C)c2ccccc2N1C(=O)c1ccc(=O)n(C)n1 (stereo unspecified); 1.53
11) COc1ccc(Cl)cc1Nc1nc(N)c(C(C)=O)s1; 2.52

----------
assay: Toxicity liver stage against HepG2, at 10uM; assay type: cell-based; parameters: test concentration 10 uM, cell line HepG2-A16-CD81EGFP; conditions: human, HepG2-A16-CD81EGFP cells; read-out: INHIBITION
Measurement kind: cytotoxicity at 10 µM (%)

1) CCCN1CCCn2nc(CNC(=O)CN(C)C3CCCC3)cc2C1; -0.992
2) Cc1ccc(-c2cn3c(n2)CO[C@@H](CNCc2nccn2C)C3)cc1; -10.6
3) O=S(=O)(C1CC1)N1C[C@H]2CCC[C@@]2(COc2ccccn2)C1; -3.47
4) Cc1nc(C(=O)N2CCOC(c3nc(C(C)C)n[nH]3)C2)c[nH]1 (stereo not given); -1.58
5) CCc1cc(=O)[nH]c2nnc(SCC(=O)NC(C)C)n12; -6.93
6) CN(CCc1ccccc1)Cc1c(C2CC2)[nH]c2ncccc12; 0.145
7) CCc1nnc2n1CCN(C(=O)c1cnc(C3CC3)s1)C2; 9.21
8) CN(C)CCN1CCOCC2(CCCN(C(=O)c3ccccn3)C2)C1 (stereo not given); 6.67
9) O=C(O)c1ccccc1CN1CCOC(CCc2ccncn2)C1 (stereo not given); -20.6
10) COc1ccc([C@@H]2CN(C(=O)Cc3cccs3)C[C@H]2NC(C)=O)cc1; -1.16
11) CC(=O)c1ccc(N2CCN(C(=O)c3cnn4c3OCCC4)CC2)cc1; 8.44
12) Cc1nn(C(C)C)c(C)c1NC(=O)c1ccccc1; -11.7
13) CCc1nc(CN2CCN(C(=O)c3cc(C)no3)CC2)cs1; -21.8
14) Cc1cc(-c2nnn(CCC(N)=O)n2)ccc1F; -8.71
15) Cc1ccc2cccc(S(=O)(=O)N(C)CC3CCN(C)CC3)c2n1; -1.6

----------
assay: Toxicity liver stage against HepG2, at 10uM; format: cell-based; set-up: test concentration 10 uM, cell line HepG2-A16-CD81EGFP; conditions: human, HepG2-A16-CD81EGFP cells; read-out: INHIBITION
In this section we review reported cytotoxicity at 10 µM values for a set of compounds.
Measurement kind: cytotoxicity at 10 µM (%)

1) COc1c(C2CCCN2C(=O)c2ccoc2C)c(C)nn1C (stereo unspecified); 0.243
2) Nc1ncc(C(=O)N2CCC3(CCCO3)CC2)c(-c2ccccc2)n1; -156
3) COCC1CN(C(=O)c2cccn2C)Cc2c1cnn2CC1CC1 (stereo unspecified); 8.07
4) O=C(Nc1cnn(C2CCOCC2)c1)c1ccc2c(c1)OCO2; 3.07
5) O=C1CCC2(CCCN(C(=O)c3cscn3)C2)CN1CCc1c[nH]cn1 (stereo unspecified); -13
6) CC[C@H]1CN2CC[C@H]1C[C@@H]2CNC(=O)Nc1cccc(C#N)c1; -0.201
7) CC(C)=CCC1(CO)CCCN(Cc2nccs2)C1 (stereo unspecified); -1.23
8) COc1ccc(Oc2ncccc2C(N)=O)cc1CN1CCCC1; 0.0453
9) CCCc1nc(CN2CCCC(Cn3cncn3)C2)no1 (stereo unspecified); -4.02
10) CCC(C)c1noc(C2CCN(C(=O)c3cccs3)CC2)n1 (stereo unspecified); -12.8
11) COCCN(C)C(=O)Cn1cccc(OC)c1=O; -14.8
12) CCSCCNC(=O)C(c1cccc(C)c1)N(C)C (stereo unspecified); -23
13) CN(C)c1ccc(-c2noc([C@@H]3CCCN3)n2)cn1; 1.73
14) COC(=O)Cn1nc(-c2ccccc2F)ccc1=O; 8.01
15) COc1ccc(CN2CC[C@H](NC(C)=O)[C@@H](O)CC2)c(OC)c1; -7.49
16) CCC(CC)C(=O)N1CCC(c2nn(CCN)c3nccnc23)C1 (stereo unspecified); -25.5

----------
assay: Toxicity liver stage against HepG2, at 10uM; type: cell-based; design: test concentration 10 uM, cell line HepG2-A16-CD81EGFP; details: human, HepG2-A16-CD81EGFP cells; read-out: INHIBITION
cytotoxicity at 10 µM: recorded values
Measurement kind: cytotoxicity at 10 µM (%)

1. CN1C[C@@H](NC(=O)c2ccccc2)C[C@H]1c1nc(-c2cnccn2)no1; 9.68
2. c1ccc2c(c1)CC(Cc1cc(N3CCCC3)cnn1)CO2 (configuration not stated); -6.03
3. Cc1nc(C(NS(=O)(=O)N(C)C)c2ccccc2F)no1 (configuration not stated); -2.09
4. COC(=O)CCNC(=O)c1nnn(-c2ccc(F)cc2)c1C1CC1; -12.1
5. Cc1nn(C)c(N(C)C)c1CNCc1ccc(C(=O)N(C)C)cc1; -9.55
6. COc1cc(N2CCC(c3nccn3Cc3ccccc3)CC2)ncn1; 5.44
7. CNC(=O)c1ccc(-n2c(COCC(=O)O)nc3c(C)cccc32)o1; -3.33
8. CN(C)C(=O)CN1CCc2ncnc(N(C)C)c2CC1; -93.2
9. CN1N=C(C(=O)N2CCCC(n3cccn3)C2)CCC1=O (configuration not stated); -19
10. Cc1ccc(C(=O)NCC(C)Cn2ccnc2C)c(=O)[nH]1 (configuration not stated); -0.89
11. O=C(c1cc(COc2ccc3c(c2)OCO3)[nH]n1)N1CCSCC1; -7.05
12. CSCc1cc(F)ccc1CNCc1ncc[nH]1; 11.5
13. Cc1ncc(CNc2ccc(C(=O)NCc3ccco3)cc2C)s1; -10.5
14. Cn1nc(C2CCNC2)c2c(C(=O)NC3CC3)cc(C3CC3)nc21 (configuration not stated); 13.9
15. CN(Cc1cccnc1)C[C@@H]1OC[C@H]2CN(Cc3ccoc3)CC[C@H]21; -137
16. O=C(NCC1=CCCCC1)C(c1cccnc1)N1CCOCC1 (configuration not stated); -8.4
17. COCCN1CCC(CNC(=O)Nc2ccc(-c3ccccc3)cc2)C1 (configuration not stated); -15.2
18. CCOC(=O)N1CCN(C(=O)c2snnc2-c2ccccc2)CC1; 0.847
19. O=c1c2ccccc2cnn1Cc1cncn1C1CC1; 3.72
20. CCCc1nnc(N2CCC(N3CCCCCC3)CC2)o1; -15.3
21. OC1(CN2CCCCC2)CCN(c2nccc(C(F)(F)F)n2)C1 (configuration not stated); -7.07
22. CS(=O)(=O)NC[C@H]1OC[C@@H]2CN(Cc3cccnc3)CC[C@@H]21; 12.7

----------
Consider the following compounds and their measured cytotoxicity at 10 µM readings.
assay: Toxicity liver stage against HepG2, at 10uM; assay type: cell-based; design: test concentration 10 uM, cell line HepG2-A16-CD81EGFP; settings: human, HepG2-A16-CD81EGFP cells; read-out: INHIBITION
Measurement kind: cytotoxicity at 10 µM (%)

1) Cc1nc(CC2CCCN(Cc3nc4ccccc4c(=O)[nH]3)C2)no1 (stereo not given); -44
2) c1cnnc(N2CCCC2CNCc2noc(C3CC3)n2)c1 (stereo not given); -7.45
3) N#Cc1cccnc1NC1CCN(c2ccccc2OC(F)F)C1=O (stereo not given); 6.37
4) Cc1cc(=O)[nH]cc1C(=O)N1CCN(C)c2ccccc2C1; -10.1
5) Cc1ccc(C(=O)N2CCN(CC(O)c3ccc(F)cc3)CC2)s1 (stereo not given); -8.93
6) CCS(=O)(=O)N1CC(c2nc(-c3cccs3)no2)C1; -7.3
7) Cn1ccnc1-c1nccn1C[C@@H]1CCCN2CCCC[C@H]12; 2.68
8) Cc1noc(C(C)N2CCN(Cc3cccc(C#N)c3)CC2)n1 (stereo not given); -5.72
9) Cc1ccc(C(=O)O)cc1S(=O)(=O)N(CC(C)O)c1ccccc1 (stereo not given); 9.83
10) O=C(NCC(O)c1cccs1)c1cccc(Cl)c1 (stereo not given); -17.8

Recorded values, source ChEMBL document CHEMBL4513216.
